# maps each entry to its IC50
Target: Axl (Homo sapiens)
Construct: endogenous in cells; host or cells: HeLa cells
Sequence (P30530 26-894): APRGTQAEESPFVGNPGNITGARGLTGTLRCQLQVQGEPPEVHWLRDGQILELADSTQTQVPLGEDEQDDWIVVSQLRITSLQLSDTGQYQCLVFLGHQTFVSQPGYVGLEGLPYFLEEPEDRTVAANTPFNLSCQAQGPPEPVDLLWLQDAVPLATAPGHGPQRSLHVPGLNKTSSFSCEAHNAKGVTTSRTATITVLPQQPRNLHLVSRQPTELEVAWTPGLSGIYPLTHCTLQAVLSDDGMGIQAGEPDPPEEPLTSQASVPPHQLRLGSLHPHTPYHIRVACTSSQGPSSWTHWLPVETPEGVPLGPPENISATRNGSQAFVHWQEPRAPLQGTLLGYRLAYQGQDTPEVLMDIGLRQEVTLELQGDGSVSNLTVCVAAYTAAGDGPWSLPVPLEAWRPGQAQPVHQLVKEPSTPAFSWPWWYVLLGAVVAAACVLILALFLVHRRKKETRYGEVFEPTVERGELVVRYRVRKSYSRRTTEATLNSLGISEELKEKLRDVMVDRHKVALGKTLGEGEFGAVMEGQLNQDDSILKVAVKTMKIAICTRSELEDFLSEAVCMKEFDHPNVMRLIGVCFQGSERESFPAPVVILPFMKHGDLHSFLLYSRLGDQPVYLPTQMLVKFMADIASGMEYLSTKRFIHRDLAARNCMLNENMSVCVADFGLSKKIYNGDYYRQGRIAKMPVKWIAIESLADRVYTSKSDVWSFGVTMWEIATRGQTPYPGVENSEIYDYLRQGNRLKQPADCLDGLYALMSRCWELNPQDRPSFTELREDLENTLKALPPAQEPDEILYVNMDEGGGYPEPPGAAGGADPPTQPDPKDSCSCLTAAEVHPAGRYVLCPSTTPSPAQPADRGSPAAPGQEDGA
Assay: Phospho-Akt in-cell Western assay
Type: cell-based
Settings: Hela cells, stimulated by Axl-antibody cross-linking, phospho-Akt chemiluminescence; Table 1, formula (Ia)

These recorded examples may help you get a feel for the data.
[[record]]
molecule = "Nc1nc(Nc2ccc3c(c2)CC[C@@H](N(CC2CCCCC2)CC2CCCCC2)CC3)nn1-c1cc2c(nn1)-c1ccccc1CCC2 [Compound 27]"
result = "10000 to 20000 nM"

[[record]]
molecule = "CCN(CC)[C@H]1CCc2ccc(Nc3nc(N)n(-c4cc5c(nn4)-c4ccccc4CCC5)n3)cc2CC1 [Compound 20]"
result = "< 1000 nM"

[[record]]
molecule = "CN(C)[C@H]1CCc2ccc(Nc3nc(N)n(-c4cc5c(nn4)-c4ccccc4CCC5)n3)cc2CC1 [Compound 31]"
result = "< 1000 nM"

[[record]]
molecule = "Nc1nc(Nc2ccc3c(c2)CC[C@@H](N)CC3)nn1-c1cc2c(nn1)-c1cccnc1CCC2 [Compound 46]"
result = "< 1000 nM"

[[record]]
molecule = "Nc1nc(Nc2ccc3c(c2)CC[C@@H](NCC2CCCCC2)CC3)nn1-c1cc2c(nn1)-c1ccccc1CCC2 [Compound 26]"
result = "< 1000 nM"

[[record]]
molecule = "Nc1nc(Nc2ccc3c(c2)CC[C@@H](N)CC3)nn1-c1cc2c(nn1)-c1ccccc1CCC2 [Compound 15]"
result = "1000 to 10000 nM"


Note: attention shifts to another entry.
## Input For COC(=O)[C@H]1CCCN1C1CCc2ccc(Nc3nc(N)n(-c4cc5c(nn4)-c4ccccc4CCC5)n3)cc2CC1 (stereo partly shown) [Compound 2] , what is its reported IC50?
## Output < 1000 nM
